Test system: Zika virus NS2B-NS3 protease (linked construct)
assayMethodText: Primary screen NINDS Rhodamine qHTS for Zika virus inhibitors (AID 1347160); note: nearly all actives have a fitted effect of over 55% in size; for activity change, negative = inhibition: % is set by controls: 0 for no effect and ±100 for the full control effect
conditionNotes: purified NS2B-NS3 protease, Rhodamine110 substrate fluorescence; series mostly up to 57.1 µM
Results filed as inconclusive are left out. Activity calls are given as the source filed them. Calls come from the whole dose curve; as a rule, active = well fitted inhibition curve with a large enough effect; inconclusive = small, poorly fitted or top-dose-only effect; inactive = no such curve, though single readings can be large or run the other way.

# molecule, activity change, negative = inhibition
records = [
    ("COc1cc(Nc2c(C#N)cnc3cc(OCCCN4CCN(C)CC4)c(OC)cc23)c(Cl)cc1Cl", "inactive"),
    ("CC(C)C[C@H](NC(=O)[C@H](Cc1ccccc1)NC(=O)c1cnccn1)B(O)O", "inactive"),
    ("OC(CN1CCN(c2cccc(Cl)c2)CC1)C(c1ccccc1)c1ccccc1 (stereo not drawn)", "inactive"),
    ("O=C(OC1C[C@H]2CC[C@@H](C1)[N+]21CCCC1)C(O)(c1ccccc1)c1ccccc1 (stereo partly drawn)", "inactive"),
    ("COc1ccccc1N1CCN(CCN(C(=O)C2CCCCC2)c2ccccn2)CC1", "inactive"),
    ("Cc1nc(Nc2ncc(C(=O)Nc3c(C)cccc3Cl)s2)cc(N2CCN(CCO)CC2)n1", "inactive"),
    ("CCCS(=O)c1ccc2nc(NC(=O)OC)[nH]c2c1 (stereo not drawn)", "inactive"),
    ("COc1cc2c(N3CCN(C(=O)Nc4ccc(OC(C)C)cc4)CC3)ncnc2cc1OCCCN1CCCCC1", "inactive"),
    ("CCN(CCO)CCCC(C)Nc1ccnc2cc(Cl)ccc12 (stereo not drawn)", "-6.84% [at 4.91 µM] (inactive)"),
    ("O=C(O)c1cccc(-c2noc(-c3ccccc3F)n2)c1", "inactive"),
    ("Cc1ccc(NC(=O)c2ccc(CN3CCN(C)CC3)cc2)cc1Nc1nccc(-c2cccnc2)n1", "inactive"),
    ("COCCCOc1ccnc(CS(=O)c2nc3ccccc3[nH]2)c1C (stereo not drawn)", "inactive"),
    ("CC(=O)O[C@H]1C(=O)[C@@]2(C)C([C@H](OC(=O)c3ccccc3)[C@]3(O)C[C@H](OC(=O)[C@H](O)[C@@H](NC(=O)c4ccccc4)c4ccccc4)C(C)=C1C3(C)C)[C@]1(OC(C)=O)CO[C@@H]1C[C@@H]2O (stereo partly drawn)", "inactive"),
    ("CC(=O)NC[C@H]1CN(c2ccc(N3CCOCC3)c(F)c2)C(=O)O1", "inactive"),
    ("CN(c1nccc(=O)[nH]1)C1CCN(c2nc3ccccc3n2Cc2ccc(F)cc2)CC1", "inactive"),
    ("COc1ccc2cc([C@H](C)C(=O)O)ccc2c1", "inactive"),
    ("Clc1ccc(C(Cn2ccnc2)OCc2c(Cl)cccc2Cl)c(Cl)c1 (stereo not drawn)", "inactive"),
    ("CCC1=C(C)CN(C(=O)NCCc2ccc(S(=O)(=O)NC(=O)NC3CCC(C)CC3)cc2)C1=O (stereo not drawn)", "inactive"),
]

* * *

assayMethodText: Quantitative High-Throughput drug screen in 47 multiple myeloma cell lines against the NCATS MIPE library collection: KMS26_JCRB cell viability assay (AID 1918975); note: nearly all actives have a fitted effect of over 45% in size
conditionNotes: KMS26 myeloma cells viability, CellTiter-Glo ATP, 48 h; series mostly up to 45.8 µM
Source text: PI: Beverly A. Mock Ph.D. Laboratory of Cancer Biology and Genetics, Center for Cancer Research, National Cancer Institute, National Institute of Health, Bethesda, Maryland […] 5; Detector; 425V; Luminescence; Viewlux PerkinElmer. […] 1. […] Briefly, the corresponding myeloma cell lines were screened in 1,536-well plates with 500 cells, 5-uL per well for inhibition of cell viability (assessed by measuring ATP levels with CellTiterGlo). […]
Inconclusive results are not listed. Active and inactive are the calls of the source. Calls come from the whole dose curve; as a rule, active = well fitted cell-killing curve with a large enough effect; inconclusive = small, poorly fitted or top-dose-only effect, or effect the other way; inactive = no such curve, though single readings can be large or run the other way. Non-standard residues stand in square brackets, D forms with d. Residues, ends and D or L forms follow the SMILES beside them. *: point of attachment. Sta = CC(C)C[C@H](N)[C@@H](O)CC(=O)O; Isovaleryl = CC(C)CC(=O)*
Classes used: YES = active, NO = inactive

# compound, group
measured = [
    ("CCOC(=O)C1=C[C@@H](OC(CC)CC)[C@H](NC(C)=O)[C@@H](N)C1", "NO"),
    ("Nc1nc(N)c(N=O)c(OCC2CCCCC2)n1", "YES"),
    ("CC(C)CC(=O)N[C@H](C(=O)N[C@H](C(=O)N[C@@H](CC(C)C)[C@@H](O)CC(=O)N[C@@H](C)C(=O)N[C@@H](CC(C)C)[C@@H](O)CC(=O)O)C(C)C)C(C)C (Isovaleryl-VV[Sta]A[Sta]-OH)", "NO"),
    ("Cc1cccc(C)c1OCC(=O)N[C@@H](Cc1ccccc1)[C@@H](O)C[C@H](Cc1ccccc1)NC(=O)[C@H](C(C)C)N1CCCNC1=O", "YES"),
    ("COc1ccc2cc([C@H](C)C(=O)O)ccc2c1", "NO"),
    ("CC[C@]1(O)C[C@H]2CN(CCc3c([nH]c4ccccc34)[C@@](C(=O)OC)(c3cc4c(cc3OC)N(C=O)[C@H]3[C@@](O)(C(=O)OC)[C@H](OC(C)=O)[C@]5(CC)C=CCN6CC[C@]43[C@@H]65)C2)C1", "YES"),
    ("O=C(CCc1ccc(O)cc1)c1c(O)cc(O)cc1O", "YES"),
    ("Cc1cc(C2CCCCC2)n(O)c(=O)c1", "YES"),
    ("CN1C(C(=O)Nc2ccccn2)=C(O)c2sccc2S1(=O)=O", "NO"),
]
